Heads up, these compounds all have IC50 values measured for Acetylcholinesterase (Homo sapiens).
reported_endpoint: IC50 (µM)

INSERT INTO measurements (smiles_code, reported_endpoint, measured_value) VALUES
  ('c1ccc2c(NCCCCCCCN3CCOCC3)c3c(nc2c1)CCCC3', 'IC50', 0.0445),
  ('c1ccc2c(NCCCCCCCCCN3CCOCC3)c3c(nc2c1)CCCC3', 'IC50', 0.034),
  ('c1ccc2c(c1)Cc1c-2nc2ccccc2c1NCCCCCCCNc1c2c(nc3ccccc13)CCCC2', 'IC50', 0.0139),
  ('c1ccc2c(NCCCCCCCCCCN3CCOCC3)c3c(nc2c1)CCCC3', 'IC50', 0.0284),
  ('c1ccc2c(c1)Cc1c-2nc2ccccc2c1NCCCCCCCNc1c2c(nc3ccccc13)-c1ccccc1C2', 'IC50', 0.455),
  ('Clc1ccc2c(NCCCCCCCNc3c4c(nc5ccccc35)-c3ccccc3C4)c3c(nc2c1)CCCC3', 'IC50', 0.00105),
  ('c1ccc2c(NCCCCCCCCN3CCOCC3)c3c(nc2c1)CCCC3', 'IC50', 0.0165),
  ('Clc1ccc2c(NCCCCCCCOc3cccc(-c4cc5ccccc5o4)c3)c3c(nc2c1)CCCC3', 'IC50', 0.258),
  ('Clc1ccc2c(NCCCCCCCNc3c4c(nc5cc(Cl)ccc35)-c3ccccc3C4)c3c(nc2c1)CCCC3', 'IC50', 0.0121),
  ('O=c1c2ccc(OCCCCCCCNc3c4c(nc5ccccc35)CCCC4)cc2oc2ncccc12', 'IC50', 0.283),
  ('c1ccc2c(NCCCCCCN3CCOCC3)c3c(nc2c1)CCCC3', 'IC50', 0.0689),
  ('Clc1ccc2c(NCCCCCCCOc3ccc(-c4cc5ccccc5o4)cc3)c3c(nc2c1)CCCC3', 'IC50', 0.31);

----------
Heads up, these molecules all have IC50 values measured for Cholinesterase (Homo sapiens, UniProt P06276).
reported_endpoint: IC50 (nM)

INSERT INTO assay_data (smiles_code, measured_on, reported_endpoint, measured_value) VALUES
  ('c1ccc2c(NCCCCCCCCCCN3CCOCC3)c3c(nc2c1)CCCC3', 'Cholinesterase (Homo sapiens, UniProt P06276)', 'IC50', 14.7),
  ('c1ccc2c(NCCCCCCCN3CCOCC3)c3c(nc2c1)CCCC3', 'Cholinesterase (Homo sapiens, UniProt P06276)', 'IC50', 90.5),
  ('c1ccc2c(c1)Cc1c-2nc2ccccc2c1NCCCCCCCNc1c2c(nc3ccccc13)CCCC2', 'Cholinesterase (Homo sapiens, UniProt P06276)', 'IC50', 24.8),
  ('Clc1ccc2c(NCCCCCCCNc3c4c(nc5ccccc35)-c3ccccc3C4)c3c(nc2c1)CCCC3', 'Cholinesterase (Homo sapiens, UniProt P06276)', 'IC50', 63.7),
  ('O=c1c2ccc(OCCCCCCCNc3c4c(nc5ccccc35)CCCC4)cc2oc2ncccc12', 'Cholinesterase (Homo sapiens, UniProt P06276)', 'IC50', 101),
  ('c1ccc2c(NCCCCCCCCN3CCOCC3)c3c(nc2c1)CCCC3', 'Cholinesterase (Homo sapiens, UniProt P06276)', 'IC50', 42.8),
  ('c1ccc2c(NCCCCCCN3CCOCC3)c3c(nc2c1)CCCC3', 'Cholinesterase (Homo sapiens, UniProt P06276)', 'IC50', 101),
  ('Clc1ccc2c(NCCCCCCCNc3c4c(nc5cc(Cl)ccc35)-c3ccccc3C4)c3c(nc2c1)CCCC3', 'Cholinesterase (Homo sapiens, UniProt P06276)', 'IC50', 1660),
  ('c1ccc2c(c1)Cc1c-2nc2ccccc2c1NCCCCCCCNc1c2c(nc3ccccc13)-c1ccccc1C2', 'Cholinesterase (Homo sapiens, UniProt P06276)', 'IC50', 28.6),
  ('Clc1ccc2c(NCCCCCCCOc3ccc(-c4cc5ccccc5o4)cc3)c3c(nc2c1)CCCC3', 'Cholinesterase (Homo sapiens, UniProt P06276)', 'IC50', 7280),
  ('c1ccc2c(NCCCCCCCCCN3CCOCC3)c3c(nc2c1)CCCC3', 'Cholinesterase (Homo sapiens, UniProt P06276)', 'IC50', 38.1),
  ('Clc1ccc2c(NCCCCCCCOc3cccc(-c4cc5ccccc5o4)c3)c3c(nc2c1)CCCC3', 'Cholinesterase (Homo sapiens, UniProt P06276)', 'IC50', 41.4);
